targetDesc: T1, Claudin18.2 on cells (human, UniProt P56856-2 1-261)
T1 construct: whole, on cells; the cell line of each result is named under assay or readout
assayNotes: flow cytometry on 293T-Claudin18.2 cells, antibody at 0.375 µg/mL
outcomeMeasure: mean fluorescence intensity

// mean fluorescence intensity lookup, key: CLD389-CA802-IgG1 (antibody, V domains shown, Complete IgG1 made in HEK293 cells) VH: QVQLVESGGGVVQPGRSLRLSCAASGFTFSSYAMHWVRQVPGKGLEWVAIISYDGSIKYYADSVKGQFTISRDNSKNTLSLQMNSLRPEDTAVYYCARDPTMVRGVRGMDVWGQGTTVTVSS VL: DIQMTQSPSSLSASVGDRVTITCRASQGIRNDLGWYQQKPGKAPKLLIYAASSLQSGVPSRFSGSGSGTDFTLTISSLQPEDFATYYCLQDYNYPLTFGGGTKLEIKR 495000
